The entries below pair molecules with IC50 values for 3-hydroxy-3-methylglutaryl-coenzyme A reductase (Rattus norvegicus, UniProt P51639), as found in several publications.
measuredProperty: IC50 (nM)

| molecule | unitsOfMeasure | IC50 |
| --- | --- | --- |
| CCC(C)C(=O)OC1CCC(=NOCc2c(C)noc2C)C2=CC(=O)C(C)C(CCC(=O)CC(O)CC(=O)O)C21 (stereo not shown) | nM | 16.3 |

[A] Cc1cc(C)c(/C=C/[C@@H](O)[C@H](F)[C@@H](O)CC(=O)O)c(-c2ccc(F)cc2)c1
[B] Cc1cc(C)cc(OCCCCC(C)(C)C(=O)O[C@H]2C[C@@H](C)CC(C)(C)C2)c1 (relative stereo)
[C] CC(C)c1nc2ccccc2c(-c2ccc(F)cc2)c1/C=C/C(O)CC(O)CC(=O)O (stereo not shown)
[D] CCC(C)C(=O)OC1CCC(=NOCc2ccccc2CO)C2=CC(=O)C(C)C(CCC(O)CC(O)CC(=O)O)C21 (stereo not shown)
[E] Cc1c(/C=C/[C@@H](O)C[C@@H](O)CC(=O)O)c(-c2ccc(F)cc2)cn1C(C)C (relative stereo)
query: Arrange by IC50, high to low. Present the labels in the sequence the task asks for.
result: C, E, A, B, D
